src = patent US8735398B2

tested on: HCV 1b genotype; experiment: HCV replicon assay (HCV-neo replicon cells, wild-type); format: cell-based, Hepatitis C virus; settings: Hepatitis C virus, HCV 1b genotype replicon; class symbols; read-out: EC50 Range against HCV 1b
property-label: EC50

{"columns": ["item-smiles", "property-label", "observed-value"],
 "data": [
  ["Cc1cc(CC(=O)N2C[C@H](O)C[C@H]2C(=O)Nc2ccc(-c3cnc(-c4ccc(NC(=O)[C@@H]5C[C@@H](O)CN5C(=O)Cc5cc(C)no5)cc4)o3)cc2)on1", "EC50", "1000 to 10000 nM"],
  ["CC(C)(C)O[C@@H]1C[C@@H](C(=O)Nc2ccc(-c3cnc(-c4ccc(NC(=O)[C@@H]5C[C@@H](OC(C)(C)C)CN5C(=O)C5CC5)cc4)o3)cc2)N(C(=O)C2CC2)C1", "EC50", "100 to 999 nM"],
  ["CC(C)(C)O[C@@H]1C[C@@H](C(=O)Nc2ccc(-c3cnc(-c4ccc(NC(=O)[C@@H]5C[C@@H](OC(C)(C)C)CN5C(=O)c5cccs5)cc4)o3)cc2)N(C(=O)c2cccs2)C1", "EC50", "1000 to 10000 nM"],
  ["O=C(Nc1ccc(-c2cnc(-c3ccc(NC(=O)[C@@H]4CCCN4C(=O)c4ccc[nH]4)cc3)o2)cc1)[C@@H]1CCCN1C(=O)c1ccc[nH]1", "EC50", "1000 to 10000 nM"],
  ["COc1cccc2c(C(=O)N[C@@H](C)C(=O)Nc3ccc(-c4nnc(-c5ccc(NC(=O)[C@H](C)NC(=O)c6nc(Cl)cc7c(OC)cccc67)cc5)o4)cc3)nc(Cl)cc12", "EC50", "100 to 999 nM"],
  ["CC(C)(C)O[C@H]1CN[C@H](C(=O)Nc2ccc(-c3cnc(-c4ccc(NC(=O)[C@@H]5C[C@@H](OC(C)(C)C)CN5)cc4)o3)cc2)C1", "EC50", "1000 to 10000 nM"],
  ["O=C(Nc1ccc(-c2cnc(-c3ccc(NC(=O)[C@@H]4CCCN4C(=O)Cc4ccc(F)cc4)cc3)o2)cc1)[C@@H]1CCCN1C(=O)Cc1ccc(F)cc1", "EC50", "< 4.57 nM"],
  ["Cn1cnc(CC(=O)N2CCC[C@H]2C(=O)Nc2ccc(-c3cnc(-c4ccc(NC(=O)[C@@H]5CCCN5C(=O)Cc5cn(C)cn5)cc4)o3)cc2)c1", "EC50", "1000 to 10000 nM"],
  ["Cc1noc(C)c1C(=O)N1C[C@H](O)C[C@H]1C(=O)Nc1ccc(-c2cnc(-c3ccc(NC(=O)[C@@H]4C[C@@H](O)CN4C(=O)c4c(C)noc4C)cc3)o2)cc1", "EC50", "1000 to 10000 nM"],
  ["CC(C)(C)O[C@@H]1C[C@@H](C(=O)Nc2ccc(-c3cnc(-c4ccc(NC(=O)[C@@H]5C[C@@H](OC(C)(C)C)CN5C(=O)C5CCCCC5)cc4)o3)cc2)N(C(=O)C2CCCCC2)C1", "EC50", "1000 to 10000 nM"],
  ["COc1ccccc1CC(=O)N1CCC[C@H]1C(=O)Nc1ccc(-c2cnc(-c3ccc(NC(=O)[C@@H]4CCCN4C(=O)Cc4ccccc4OC)cc3)o2)cc1", "EC50", "100 to 999 nM"],
  ["O=C(Nc1ccc(-c2cnc(-c3ccc(NC(=O)[C@@H]4CCCN4C(=O)c4sccc4Cl)cc3)o2)cc1)[C@@H]1CCCN1C(=O)c1sccc1Cl", "EC50", "1000 to 10000 nM"],
  ["CC(C)(C)O[C@@H]1C[C@@H](C(=O)Nc2ccc(-c3cnc(-c4ccc(NC(=O)[C@@H]5C[C@@H](OC(C)(C)C)CN5C(=O)c5ccccc5)cc4)o3)cc2)N(C(=O)c2ccccc2)C1", "EC50", "1000 to 10000 nM"],
  ["Cc1cc(CC(=O)N2C[C@H](OC(C)(C)C)C[C@H]2C(=O)Nc2ccc(-c3cnc(-c4ccc(NC(=O)[C@@H]5C[C@@H](OC(C)(C)C)CN5C(=O)Cc5cc(C)no5)cc4)o3)cc2)on1", "EC50", "4.57 to 99 nM"],
  ["CC1(C(=O)N2CCC[C@H]2C(=O)Nc2ccc(-c3cnc(-c4ccc(NC(=O)[C@@H]5CCCN5C(=O)C5(C)CC5)cc4)o3)cc2)CC1", "EC50", "100 to 999 nM"],
  ["Cc1cccc(CC(=O)N2C[C@H](OC(C)(C)C)C[C@H]2C(=O)Nc2ccc(-c3cnc(-c4ccc(NC(=O)[C@@H]5C[C@@H](OC(C)(C)C)CN5C(=O)Cc5cccc(C)c5)cc4)o3)cc2)c1", "EC50", "100 to 999 nM"],
  ["CO[C@@H](C(=O)N1CCC[C@H]1C(=O)Nc1ccc(-c2cnc(-c3ccc(NC(=O)[C@@H]4CCCN4C(=O)[C@H](OC)c4ccccc4)cc3)o2)cc1)c1ccccc1", "EC50", "1000 to 10000 nM"],
  ["CCCC(C)(C)C(=O)N1CCC[C@H]1C(=O)Nc1ccc(-c2cnc(-c3ccc(NC(=O)[C@@H]4CCCN4C(=O)C(C)(C)CCC)cc3)o2)cc1", "EC50", "1000 to 10000 nM"],
  ["Cn1cc(C(=O)C(=O)N2CCC[C@H]2C(=O)Nc2ccc(-c3cnc(-c4ccc(NC(=O)[C@@H]5CCCN5C(=O)C(=O)c5cn(C)c6ccccc56)cc4)o3)cc2)c2ccccc21", "EC50", "100 to 999 nM"],
  ["CCc1ccccc1C(=O)N1C[C@H](OC(C)(C)C)C[C@H]1C(=O)Nc1ccc(-c2cnc(-c3ccc(NC(=O)[C@@H]4C[C@@H](OC(C)(C)C)CN4C(=O)c4ccccc4CC)cc3)o2)cc1", "EC50", "1000 to 10000 nM"],
  ["N#CC1(C(=O)N2CCC[C@H]2C(=O)Nc2ccc(-c3cnc(-c4ccc(NC(=O)[C@@H]5CCCN5C(=O)C5(C#N)CC5)cc4)o3)cc2)CC1", "EC50", "100 to 999 nM"]
]}
